B1: library; a variant is named by its letters at N, in order (parent)
chain: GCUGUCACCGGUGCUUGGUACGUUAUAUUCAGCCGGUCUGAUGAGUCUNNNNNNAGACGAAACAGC

Variants of: B1
protocolText: normalized RNA/DNA level with ligand (relative to sTRSVctl = 100) (log10 (% of sTRSVctl)); HEK293T overexpressing SLC46A1; ligand concentration (+) RNA-Seq: 6 mM; higher = less ribozyme self-cleavage, higher mRNA level
conditionDetails: with (6R,S)-folinic acid; ligand present: yes
valueType: normalized RNA/DNA level with ligand (log10)
Form: value (number only, do not type unit).

Worked examples, 3 variants total:
UCUGAU	2
UAACAC	2.01
AGUGAA	1.99

Q. What normalized RNA/DNA level with ligand (log10) value was documented for this variant, GGUUUC ?
A. 2

Q. Next record, please: UCUAGG
A. 2.05
